Reference for the values: ChEMBL document CHEMBL3286372

Test system: NCI-H322M
Experiment: Growth inhibition of human NCI-H322M cells after 48 hrs by coulter counting analysis
Assay type: functional
Kindly note that classification relies on GI50 with these boundaries: range A: < 3 µM; range B: ≥ 3 µM and < 6 µM; range C: ≥ 6 µM

These recorded examples may help you get a feel for the data.
Prompt: Hi, small favor: classify COc1c2occc2c(OC)c2c(=O)c(CN3CCOCC3)c(/C=C/c3ccc(N(C)C)cc3)oc12 by its GI50 when you get a moment.
Response: range A

Prompt: Hi, small favor: classify COc1c2ccoc2c(/C=C/C=O)c2oc(-c3ccccc3)cc(=O)c12 by its GI50 when you get a moment.
Response: range C

Prompt: Hi, small favor: classify COc1c2occc2c(OC)c2c(=O)c(CN3CCOCC3)c(/C=C/c3ccc(Cl)cc3)oc12 by its GI50 when you get a moment.
Response: range A

Prompt: Hi, small favor: classify C=CCc1c(O)c(C(=O)/C=C/c2ccccc2)c(OC)c2ccoc12 by its GI50 when you get a moment.
Response: range B

Prompt: Hi, small favor: classify COc1c(C(=O)/C=C/c2ccc(Cl)cc2)c(O)c(Br)c2occc12 by its GI50 when you get a moment.
Response: range B

Others:
Prompt: Hi, small favor: classify COc1ccc(-c2cc(=O)c3c(OC)c4ccoc4c(/C=C/C=O)c3o2)cc1 by its GI50 when you get a moment.
Response: range B

Prompt: Hi, small favor: classify COc1ccccc1/C=C/C(=O)c1c(O)cc2occc2c1OC by its GI50 when you get a moment.
Response: range C

Prompt: Hi, small favor: classify C=CCc1c(O)c(C(=O)/C=C/c2ccc(Cl)cc2)c(OC)c2ccoc12 by its GI50 when you get a moment.
Response: range B

Prompt: Hi, small favor: classify COc1c(C(=O)/C=C/c2ccccc2)c(O)cc2occc12 by its GI50 when you get a moment.
Response: range C

---

Give inhibition of growth at 10 µM for every item shown.
Test: Growth inhibition of human MOLT4 cells at 10 uM after 48 hrs by sulforhodamine B assay relative to control
Type: functional
Conditions: MOLT-4, 48 h, read-out: GI
One number for each entry, in %.

// worked examples, inhibition of growth at 10 µM included
Prompt: Value lookup for inhibition of growth at 10 µM; key = COc1ccccc1/C=C/C(=O)c1c(O)cc2occc2c1OC
Response: 66

Prompt: Value lookup for inhibition of growth at 10 µM; key = COc1ccc(/C=C/c2oc3c(OC)c4occc4c(OC)c3c(=O)c2CN2CCOCC2)cc1
Response: 66

Prompt: Value lookup for inhibition of growth at 10 µM; key = COc1c2c(c(Br)c3occc13)O/C(=C\c1ccc(Cl)cc1)C2=O
Response: 85

Prompt: Value lookup for inhibition of growth at 10 µM; key = COc1c2c(c(Br)c3occc13)O/C(=C\c1ccccc1)C2=O
Response: 85

Others:
Prompt: Value lookup for inhibition of growth at 10 µM; key = COc1c2occc2c(OC)c2c(=O)c(CN3CCOCC3)c(/C=C/c3ccc(N(C)C)cc3)oc12
Response: 88

---

Target: Glycogen synthase kinase-3 beta (Homo sapiens) (UniProt P49841)
Sequence (P49841 whole entry, looked up): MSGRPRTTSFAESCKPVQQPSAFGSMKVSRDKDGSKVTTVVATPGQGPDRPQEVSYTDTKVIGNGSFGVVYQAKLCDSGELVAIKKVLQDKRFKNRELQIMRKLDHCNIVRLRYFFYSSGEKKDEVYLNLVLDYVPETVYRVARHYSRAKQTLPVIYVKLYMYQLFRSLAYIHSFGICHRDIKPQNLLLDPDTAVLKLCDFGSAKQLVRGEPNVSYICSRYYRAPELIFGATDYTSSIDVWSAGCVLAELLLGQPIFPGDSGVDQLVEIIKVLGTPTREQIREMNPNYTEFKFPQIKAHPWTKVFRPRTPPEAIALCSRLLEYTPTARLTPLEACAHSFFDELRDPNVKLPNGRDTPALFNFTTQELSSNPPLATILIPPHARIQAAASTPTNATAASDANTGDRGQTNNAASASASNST
Assay: Inhibition of GSK-3beta (unknown origin) at 20 uM after 30 mins by scintillation counting analysis relative to control
Give inhibition for every item shown.
Numbers only, in %.

Prompt: Value lookup for inhibition; key = COc1c(C(=O)/C=C/c2ccccc2)c(O)cc2occc12
Response: 28

Provide the reported inhibition of each entry below, same order.
1. C=CCc1c(O)c(C(=O)/C=C/c2ccc(Cl)cc2)c(OC)c2ccoc12
2. COc1ccccc1/C=C/C(=O)c1c(O)cc2occc2c1OC
3. COc1c(C(=O)/C=C/c2ccc(Cl)cc2)c(O)c(Br)c2occc12
4. COc1c2occc2c(OC)c2c(=O)c(CN3CCOCC3)c(/C=C/c3ccc(Cl)cc3)oc12

Response:
80
17
30
5

Provide the reported inhibition of each entry below, same order.
1. COc1ccc(-c2cc(=O)c3c(OC)c4ccoc4c(/C=C/C=O)c3o2)cc1
2. COc1c2occc2c(OC)c2c(=O)c(CN3CCOCC3)c(/C=C/c3ccc(N(C)C)cc3)oc12
3. COc1c2ccoc2c(/C=C/C=O)c2oc(-c3ccccc3)cc(=O)c12
4. C=CCc1c2c(c(OC)c3ccoc13)C(=O)/C(=C/c1ccccc1OC)O2
5. C=CCc1c(O)c(C(=O)/C=C/c2ccccc2)c(OC)c2ccoc12

Response:
11
13
58
56
38

---

Give GI50 for every item shown.
System: SK-OV-3
Assay: Growth inhibition of human SKOV3 cells after 48 hrs by coulter counting analysis
Type: functional
Details: SK-OV-3, 48 h
Numbers only, in µM.

Prompt: Value lookup for GI50; key = COc1c2occc2c(OC)c2c(=O)c(CN3CCOCC3)c(/C=C/c3ccc(Cl)cc3)oc12
Response: 3.56

Provide the reported GI50 of each entry below, same order.
1. COc1c(C(=O)/C=C/c2ccccc2)c(O)cc2occc12
2. C=CCc1c2c(c(OC)c3ccoc13)C(=O)/C(=C/c1ccccc1OC)O2
3. COc1c2occc2c(OC)c2c(=O)c(CN3CCOCC3)c(/C=C/c3ccc(N(C)C)cc3)oc12
4. COc1c2ccoc2c(/C=C/C=O)c2oc(-c3ccccc3)cc(=O)c12

Response:
[14.1, 5.45, 2.72, 6.34]

---

Give inhibition for every item shown.
Target: Cyclin-dependent kinase 4/cyclin D1 (Homo sapiens) (UniProt P11802+P24385)
Assay: Inhibition of CDK4/Cyclin D1 (unknown origin) at 20 uM after 30 mins by scintillation counting analysis relative to control
Assay type: protein-complex assay
Answers are plain numbers, in %.

// worked examples, inhibition included
Prompt: Value lookup for inhibition; key = C=CCc1c(O)c(C(=O)/C=C/c2ccc(Cl)cc2)c(OC)c2ccoc12
Response: 0

Prompt: Value lookup for inhibition; key = COc1ccccc1/C=C/C(=O)c1c(O)cc2occc2c1OC
Response: 0

Provide the reported inhibition of each entry below, same order.
1. C=CCc1c2c(c(OC)c3ccoc13)C(=O)/C(=C/c1ccccc1OC)O2
2. COc1ccc(-c2cc(=O)c3c(OC)c4ccoc4c(/C=C/C=O)c3o2)cc1

Response:
1. 9
2. 0

Provide the reported inhibition of each entry below, same order.
1. COc1c(C(=O)/C=C/c2ccc(Cl)cc2)c(O)c(Br)c2occc12
2. COc1c2occc2c(OC)c2c(=O)c(CN3CCOCC3)c(/C=C/c3ccc(Cl)cc3)oc12
3. COc1c(C(=O)/C=C/c2ccccc2)c(O)cc2occc12

Response:
15
6
13

Provide the reported inhibition of each entry below, same order.
1. COc1c2occc2c(OC)c2c(=O)c(CN3CCOCC3)c(/C=C/c3ccc(N(C)C)cc3)oc12
2. COc1c2ccoc2c(/C=C/C=O)c2oc(-c3ccccc3)cc(=O)c12
3. C=CCc1c(O)c(C(=O)/C=C/c2ccccc2)c(OC)c2ccoc12

Response:
1: 12; 2: 0; 3: 0

---

Give log10 of GI50 for every item shown.
System: HT-29
Test: Growth inhibition of human HT-29 cells after 48 hrs by coulter counting analysis
Format: functional
Conditions: HT-29, 48 h
The common logarithm of GI50 in µM is what is listed.

// worked examples, log10 of GI50 included
Prompt: Value lookup for log10 of GI50; key = COc1c2occc2c(OC)c2c(=O)c(CN3CCOCC3)c(/C=C/c3ccc(Cl)cc3)oc12
Response: 0.43

Prompt: Value lookup for log10 of GI50; key = COc1ccc(-c2cc(=O)c3c(OC)c4ccoc4c(/C=C/C=O)c3o2)cc1
Response: 1.26

Provide the reported log10 of GI50 of each entry below, same order.
1. COc1c(C(=O)/C=C/c2ccccc2)c(O)cc2occc12
2. COc1c2occc2c(OC)c2c(=O)c(CN3CCOCC3)c(/C=C/c3ccc(N(C)C)cc3)oc12
3. COc1c(C(=O)/C=C/c2ccc(Cl)cc2)c(O)c(Br)c2occc12

Response:
0.80
0.34
0.61

---

Experiment: Growth inhibition of human Hs 578T cells after 48 hrs by coulter counting analysis
Type: functional
Give GI50 for every item shown.
Numbers only, in µM.

// worked examples, GI50 included
Prompt: Value lookup for GI50; key = COc1ccc(-c2cc(=O)c3c(OC)c4ccoc4c(/C=C/C=O)c3o2)cc1
Response: 10.4

Prompt: Value lookup for GI50; key = COc1c2occc2c(OC)c2c(=O)c(CN3CCOCC3)c(/C=C/c3ccc(Cl)cc3)oc12
Response: 1.9

Prompt: Value lookup for GI50; key = C=CCc1c2c(c(OC)c3ccoc13)C(=O)/C(=C/c1ccccc1OC)O2
Response: 5.29

Provide the reported GI50 of each entry below, same order.
1. C=CCc1c(O)c(C(=O)/C=C/c2ccccc2)c(OC)c2ccoc12
2. COc1c(C(=O)/C=C/c2ccccc2)c(O)cc2occc12

Response:
1: 3.9; 2: 2.76
